Tested on: HOP-62 NSCLC
Method Summary: NCI tumour cell line growth inhibition, 48 h
Experimental Readout: TGI

- Compound: "Cc1ccc(S(=O)ON2CCC(C(=O)O)(c3ccccc3)CC2)cc1 (centres undefined)"
  Endpoint Result: "> 100 µM"
- Compound: "CCNC(=O)C[C@@H]1N=C(c2ccc(Cl)cc2)c2cc(OC)ccc2-n2c(C)nnc21"
  Endpoint Result: "> 100 µM"
- Compound: "CCOP(=O)(OCC)C(NC(=O)OCC(Cl)(Cl)Cl)n1nnc(C(=O)OC)c1C(=O)OC (centres undefined)"
  Endpoint Result: "> 100 µM"
- Compound: "CC1=CC=NN2C(=O)[C@H](C)C2C1 (some centres undefined)"
  Endpoint Result: "> 100 µM"
- Compound: "CCOC(=O)c1c(C)n(Cc2ccccc2)c(=O)c2ccccc2c(=O)c2c(=O)ccc(=O)c1=2"
  Endpoint Result: "> 100 µM"
- Compound: "C[Si](C)(C)C#CCO[Si](C)(C)C"
  Endpoint Result: "> 100 µM"
- Compound: "COc1ccc(C(=O)Cn2c(C(=O)c3ccc(Cl)cc3)nc3ccccc32)cc1"
  Endpoint Result: "> 34.6 µM"
- Compound: "CC(=O)N(C)OC(=O)CC(=O)c1ccccc1"
  Endpoint Result: "> 100 µM"
- Compound: "Cc1ccc2c(c1)SSSSS2"
  Endpoint Result: "38 µM"

* * *

Catalogue of molecules with associated TGI
System: HCT-15 colon
Method Summary: NCI tumour cell line growth inhibition, 48 h

- Molecule: "c1ccc(N=C2c3ccccc3CN2c2ccccc2)cc1"
  TGI: "> 100 µM"
- Molecule: "COc1ccc2[nH]cc(CCNC(C)=O)c2c1"
  TGI: "> 100 µM"
- Molecule: "CC(C)=CCC[C@]1(C)CC[C@]2(C)C3CCC(=C(C)C)[C@@H](CCCO)[C@]3(C)CC[C@@]2(C)C1 (stereo partly specified)"
  TGI: "> 100 µM"
- Molecule: "O=C(Nc1ccc(S(=O)(=O)Nc2nccs2)cc1)c1cccnc1Nc1cccc(Cl)c1"
  TGI: "27.5 µM"
- Molecule: "CC(C(=O)N1C(=O)N(C(=O)C(C)C(O)c2ccccc2)C(c2ccccc2)C1c1ccccc1)C(O)c1ccccc1 (stereo unspecified)"
  TGI: "> 100 µM"
- Molecule: "O=C1c2ccccc2-c2c1c1ccccc1c(=O)n2Cc1ccco1"
  TGI: "> 100 µM"
- Molecule: "Cc1ccc2c(c1)SSSSS2"
  TGI: "30 µM"
- Molecule: "CC(Cn1c2c3ccccc3ccc2c2oc(=O)c3ccccc3c21)N(C)C (stereo unspecified)"
  TGI: "> 100 µM"
- Molecule: "Cc1ccc(NC(c2ccccc2)c2ccc3cccnc3c2O)cc1 (stereo unspecified)"
  TGI: "14.4 µM"
- Molecule: "Oc1ccc2ccccc2c1C=NCCCN=Cc1c(O)ccc2ccccc12"
  TGI: "28.5 µM"
- Molecule: "CCN1CC2=C(N=c3s/c(=C\\c4ccc(Cl)cc4)c(=O)n3C2c2ccc(Cl)cc2)/C(=C/c2ccc(Cl)cc2)C1 (stereo unspecified)"
  TGI: "> 100 µM"
- Molecule: "CC(O)C1OC(O)C2OC(C)(C)OC12 (stereo unspecified)"
  TGI: "> 100 µM"
- Molecule: "Cc1c(N2C(=O)/C(=C/C=C/c3ccccc3)N=C2c2ccccc2)c(=O)n(-c2ccccc2)n1C"
  TGI: "21 µM"
- Molecule: "C=C1C(=O)O[C@@H]2[C@H]3O[C@]3(C)CCC=C(C)CC[C@@H]12"
  TGI: "35.3 µM"
- Molecule: "O=C(c1ccccc1)c1ccc(C(c2c(O)c3ccccc3oc2=O)c2c(O)c3ccccc3oc2=O)cc1"
  TGI: "> 95.3 µM"
- Molecule: "S=c1ssc2c3ssc(=S)c3n(Cc3ccccc3)c12"
  TGI: "> 100 µM"
- Molecule: "CCCCCC(CN1CCOCC1)C(=O)/C=C/c1ccccc1 (stereo unspecified)"
  TGI: "4.92 µM"
- Molecule: "O=C(Nc1ccc(Cl)c(C(F)(F)F)c1)C(=O)C(C(=O)/C=C/c1ccccc1)C1OC(=O)c2ccccc21 (stereo unspecified)"
  TGI: "> 100 µM"
- Molecule: "CCC1=C(C)/C(=C/c2[nH]c(C)c(C(=O)CCCCC(=O)OC)c2C)N=C1c1ccc[nH]1"
  TGI: "66.8 µM"
- Molecule: "O=C(Cc1nc2ccccc2s1)C(=O)Nc1ccc(Cl)cc1"
  TGI: "> 100 µM"
- Molecule: "CCN(CC)CCCN(c1cc(OC)cc2nccnc12)S(=O)(=O)c1ccc(C)cc1"
  TGI: "> 100 µM"
- Molecule: "O=[N+]([O-])c1ccc(N2CCN(Cc3ccccc3)CC2)c2c1no[n+]2[O-]"
  TGI: "2.46 µM"
- Molecule: "CCCCCCCCC[C@@H]1C[C@@H]2CCC3C(C(=O)OC)=C(C)NC(=N1)N32 (stereo partly specified)"
  TGI: "38.3 µM"
- Molecule: "CSc1ccc2c(cc1=O)[C@@H](NC(C)=O)CCc1cc(O)c(O)c(O)c1-2"
  TGI: "34.2 µM"
- Molecule: "O=c1[nH]c2ccc(C(F)(F)F)cc2nc1-c1ccccc1"
  TGI: "> 100 µM"
- Molecule: "CC/C(=N\\NC(=O)c1cccnc1)c1ccc2c(c1)OCCO2"
  TGI: "> 100 µM"
- Molecule: "O=C(O)c1ccc(S(=O)(=O)c2ccccc2)c([N+](=O)[O-])c1"
  TGI: "> 100 µM"
- Molecule: "CCCC1NC(=O)C(CC(C)C)NC(=O)c2cccc(n2)C(=O)NC(CC(C)C)C(=O)NC(CCC)C(=O)NC(C(=O)OC)CCCCNC1=O (stereo unspecified)"
  TGI: "> 100 µM"
- Molecule: "Cc1cc(-c2ccc(C(=O)O)[nH]2)on1"
  TGI: "> 100 µM"
- Molecule: "O=c1c2ccccc2nc2n1NC(c1c(Cl)cccc1Cl)N2c1cccc(Cl)c1 (stereo unspecified)"
  TGI: "> 100 µM"
- Molecule: "NC(N)=NCCCC(N=c1c2ccccc2n(O)c2ccccc12)C(=O)O (stereo unspecified)"
  TGI: "> 100 µM"
- Molecule: "COc1cc(NS(C)(=O)=O)ccc1NCc1cnc2ccc3[nH]c(C)ccc3c12"
  TGI: "> 100 µM"
- Molecule: "CCNC(=O)C[C@@H]1N=C(c2ccc(Cl)cc2)c2cc(OC)ccc2-n2c(C)nnc21"
  TGI: "> 100 µM"
- Molecule: "CC(=O)N1CCC2(C=Nc3ccccc32)CC1"
  TGI: "> 100 µM"
- Molecule: "Cc1cc2nc3n[nH]c(N)c3nc2cc1C"
  TGI: "> 100 µM"
- Molecule: "CNc1ncnc(Sc2nc(N)nc3nc[nH]c23)c1[N+](=O)[O-]"
  TGI: "14 µM"
- Molecule: "C=CC1(C)CCC(C(C)C(=O)C(C=C(C)C)OC(C)=O)C12C(=O)Oc1ccccc1C2=O (stereo unspecified)"
  TGI: "> 100 µM"
- Molecule: "CCNc1nnc(CSc2nc(-c3ccccc3)c(-c3ccccc3)[nH]2)s1"
  TGI: "43.8 µM"
- Molecule: "O=C(O)CC(C(=O)O)c1ccccc1[N+](=O)[O-] (stereo unspecified)"
  TGI: "> 100 µM"
- Molecule: "CCOC(=O)C1(C(=O)OCC)C[C@]23OCCC(=O)[C@H]2[C@H]2C(=O)OC(C)(C)O[C@]23C1"
  TGI: "> 100 µM"
- Molecule: "CN1CCN(Cc2ccc(-c3cc4ncnc(Nc5ccc(OCc6cccc(F)c6)c(Cl)c5)c4s3)o2)CC1"
  TGI: "6.39 µM"

* * *

Tested on: BT-549 breast
Method Summary: NCI tumour cell line growth inhibition, 48 h
# TGI values compiled below

- Compound: "CCC1(C)C=Cc2c(cc(OC)c3c(=O)c4ccccc4n(C)c23)O1 (stereo unspecified)"
  Target Or System: "BT-549 breast"
  TGI: "> 10 µM"
- Compound: "CSC(SC)=C1CC(=O)Nc2ccccc2C1=O"
  Target Or System: "BT-549 breast"
  TGI: "> 100 µM"
- Compound: "Cc1ccc(C)c(NC(=O)C(=O)C2C(=O)C3=C(CC2(C)C)Nc2ccccc2S3)c1 (stereo unspecified)"
  Target Or System: "BT-549 breast"
  TGI: "> 100 µM"
- Compound: "CC(=O)OCC1OC(On2ccccc2=S)C(OC(C)=O)C(OC(C)=O)C1OC(C)=O (stereo unspecified)"
  Target Or System: "BT-549 breast"
  TGI: "> 100 µM"
- Compound: "Cc1[nH]c(=O)[nH]c(=O)c1N(CCF)CCCl"
  Target Or System: "BT-549 breast"
  TGI: "769 µM"
- Compound: "Cn1ccnc1C(=O)/C=C/c1ccc(CC(=O)Nc2ccc(Cl)cc2)cc1"
  Target Or System: "BT-549 breast"
  TGI: "> 25 µM"
